TEST SYSTEM: FZD1 (Homo sapiens)
Construct: purchased Promega (in-house HiBiT-GPCR construct library, NanoBRET)
Sequence (Q9UP38 70-647): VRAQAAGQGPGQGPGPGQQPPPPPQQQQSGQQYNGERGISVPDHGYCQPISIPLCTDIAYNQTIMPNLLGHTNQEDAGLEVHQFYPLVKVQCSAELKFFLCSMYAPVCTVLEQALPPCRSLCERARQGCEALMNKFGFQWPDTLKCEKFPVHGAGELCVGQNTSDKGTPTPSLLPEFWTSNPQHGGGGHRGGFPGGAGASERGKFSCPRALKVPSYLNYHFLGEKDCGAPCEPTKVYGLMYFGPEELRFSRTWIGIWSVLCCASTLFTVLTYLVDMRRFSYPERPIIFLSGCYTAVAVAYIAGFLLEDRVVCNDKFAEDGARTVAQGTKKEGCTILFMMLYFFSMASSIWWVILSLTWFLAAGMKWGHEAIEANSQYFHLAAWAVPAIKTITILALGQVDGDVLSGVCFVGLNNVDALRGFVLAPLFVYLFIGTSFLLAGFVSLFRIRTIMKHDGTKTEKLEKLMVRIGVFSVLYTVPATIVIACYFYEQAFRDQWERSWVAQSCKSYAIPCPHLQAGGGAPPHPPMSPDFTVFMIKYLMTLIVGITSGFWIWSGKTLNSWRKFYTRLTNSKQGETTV
MEASUREMENT DESCRIPTION: NanoBRET screen HiBiT-FZD1 in HEK293
Assay type: binding
MEASUREMENT SETUP: FZD1; tracer 0.1μM
Lab note - cut at 1 for NanoBRET Fold Response: YES if strictly below, NO if not.

>>> class("Cc1cc2c(s1)Nc1ccccc1N=C2N1CCN(CCCNC(=O)CCOCCOCCOCCOCCNC(=O)CCc2ccc3n2[B-](F)(F)[N+]2=C(c4ccc[nH]4)C=CC2=C3)CC1")
"YES"
>>> class("O=C(CCc1ccc2n1[B-](F)(F)[N+]1=C(c3ccc[nH]3)C=CC1=C2)NCCOCCOCCNC(=O)OCCOCCN1CCN(C2=Nc3ccccc3Sc3ccccc32)CC1")
"NO"
>>> class("N#CN=C(NCCCOc1cccc(CN2CCCCC2)c1)NCCNC(=O)CCOCCOCCOCCOCCNC(=O)CCc1ccc2n1[B-](F)(F)[N+]1=C(c3ccc[nH]3)C=CC1=C2")
"NO"
>>> class("CCCn1c(=O)c2[nH]c(-c3ccc(OCC(=O)NCCNC(=O)CCOCCNC(=O)c4ccc(CNC(=O)CCc5ccc6n5[B-](F)(F)[N+]5=C(c7ccc[nH]7)C=CC5=C6)cc4)cc3)nc2n(CCC)c1=O")
"YES"
>>> class("CC(C)N(CC[C@H](c1ccccc1)c1cc(CCNC(=O)CCOCCOCCOCCOCCNC(=O)CCc2ccc3n2[B-](F)(F)[N+]2=C(c4ccc[nH]4)C=CC2=C3)ccc1O)C(C)C")
"YES"
>>> class("COc1ccccc1N1CCN(CCCCN2C(=O)c3ccc(CNC(=O)CCOCCNC(=O)c4ccc(CNC(=O)CCc5ccc6n5[B-](F)(F)[N+]5=C(c7ccc[nH]7)C=CC5=C6)cc4)cc3C2=O)CC1")
"YES"
>>> class("O=C(CCOCCOCCOCCOCCNC(=O)CCc1ccc2n1[B-](F)(F)[N+]1=C(c3ccc[nH]3)C=CC1=C2)NCCCN1CCN(C2=Nc3ccccc3Oc3ccc(Cl)cc32)CC1")
"NO"
>>> class("CC(C)N(CC[C@H](c1ccccc1)c1cc(CCNC(=O)c2ccc(CNC(=O)CCc3ccc4n3[B-](F)(F)[N+]3=C(c5ccc[nH]5)C=CC3=C4)cc2)ccc1O)C(C)C")
"NO"
>>> class("O=C(CCc1ccc2n1[B-](F)(F)[N+]1=C(c3ccc[nH]3)C=CC1=C2)NCc1ccc(C(=O)NCCOCCC(=O)N[C@@H]2CC[C@@]3(O)[C@H]4Cc5ccc(O)c6c5[C@@]3(CCN4CC3CC3)[C@H]2O6)cc1 [Naltrexone-3-NB590]")
"NO"

###

TEST SYSTEM: EDNRA (Homo sapiens)
Construct: purchased Promega (in-house HiBiT-GPCR construct library, NanoBRET)
Sequence (P25101 21-427): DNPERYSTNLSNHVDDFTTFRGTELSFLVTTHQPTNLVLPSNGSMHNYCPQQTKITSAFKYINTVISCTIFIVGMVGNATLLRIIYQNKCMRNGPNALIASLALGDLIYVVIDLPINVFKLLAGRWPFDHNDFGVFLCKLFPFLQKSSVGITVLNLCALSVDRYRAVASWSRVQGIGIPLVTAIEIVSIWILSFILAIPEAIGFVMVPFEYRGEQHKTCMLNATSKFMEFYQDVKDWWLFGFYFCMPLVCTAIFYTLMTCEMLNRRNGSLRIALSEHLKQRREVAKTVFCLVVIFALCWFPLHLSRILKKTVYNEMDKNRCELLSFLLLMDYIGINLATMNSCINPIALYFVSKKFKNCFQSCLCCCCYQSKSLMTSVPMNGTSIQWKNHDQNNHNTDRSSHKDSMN
MEASUREMENT DESCRIPTION: NanoBRET screen HiBiT-EDNRA in HEK293
Type: binding
MEASUREMENT SETUP: EDNRA; tracer 0.1μM
OBSERVATION TYPE: NanoBRET Fold Response

>>> recorded_measurement("Cc1nc2n(c(=O)c1CCN1CCC(c3noc4cc(F)ccc34)CC1)CCCC2OC(=O)NCCOCCOCCOCCOCCNC(=O)CCc1ccc2n1[B-](F)(F)[N+]1=C(c3ccc[nH]3)C=CC1=C2 (centres unmarked)")
1.04
>>> recorded_measurement("CC(C)N(CC[C@H](c1ccccc1)c1cc(CCNC(=O)c2ccc(CNC(=O)CCc3ccc4n3[B-](F)(F)[N+]3=C(c5ccc[nH]5)C=CC3=C4)cc2)ccc1O)C(C)C")
1.05
>>> recorded_measurement("CCCn1c(=O)c2[nH]c(-c3ccc(OCC(=O)NCCNC(=O)CCOCCNC(=O)c4ccc(CNC(=O)CCc5ccc6n5[B-](F)(F)[N+]5=C(c7ccc[nH]7)C=CC5=C6)cc4)cc3)nc2n(CCC)c1=O")
1.12
>>> recorded_measurement("CC(C)N(CC[C@H](c1ccccc1)c1cc(CCNC(=O)CCOCCOCCOCCOCCNC(=O)CCc2ccc3n2[B-](F)(F)[N+]2=C(c4ccc[nH]4)C=CC2=C3)ccc1O)C(C)C")
0.94
>>> recorded_measurement("COc1ccccc1N1CCN(CCCCN2C(=O)c3ccc(CNC(=O)CCOCCNC(=O)c4ccc(CNC(=O)CCc5ccc6n5[B-](F)(F)[N+]5=C(c7ccc[nH]7)C=CC5=C6)cc4)cc3C2=O)CC1")
1.01
>>> recorded_measurement("Cc1cc2c(s1)Nc1ccccc1N=C2N1CCN(CCCNC(=O)CCOCCOCCOCCOCCNC(=O)CCc2ccc3n2[B-](F)(F)[N+]2=C(c4ccc[nH]4)C=CC2=C3)CC1")
1.02
>>> recorded_measurement("N#CN=C(NCCCOc1cccc(CN2CCCCC2)c1)NCCNC(=O)CCOCCOCCOCCOCCNC(=O)CCc1ccc2n1[B-](F)(F)[N+]1=C(c3ccc[nH]3)C=CC1=C2")
1.03
>>> recorded_measurement("O=C(CCc1ccc2n1[B-](F)(F)[N+]1=C(c3ccc[nH]3)C=CC1=C2)NCc1ccc(C(=O)NCCOCCC(=O)N[C@@H]2CC[C@@]3(O)[C@H]4Cc5ccc(O)c6c5[C@@]3(CCN4CC3CC3)[C@H]2O6)cc1 [Naltrexone-3-NB590]")
1.00
>>> recorded_measurement("O=C(CCc1ccc2n1[B-](F)(F)[N+]1=C(c3ccc[nH]3)C=CC1=C2)NCCOCCOCCNC(=O)OCCOCCN1CCN(C2=Nc3ccccc3Sc3ccccc32)CC1")
1.03
>>> recorded_measurement("O=C(CCOCCOCCOCCOCCNC(=O)CCc1ccc2n1[B-](F)(F)[N+]1=C(c3ccc[nH]3)C=CC1=C2)NCCCN1CCN(C2=Nc3ccccc3Oc3ccc(Cl)cc32)CC1")
1.05
>>> recorded_measurement("COc1ccccc1N1CCN(CCCCN2C(=O)c3ccc(CNC(=O)CCOCCOCCOCCOCCNC(=O)CCc4ccc5n4[B-](F)(F)[N+]4=C(c6ccc[nH]6)C=CC4=C5)cc3C2=O)CC1")
1.02

###

TEST SYSTEM: SSTR1 (Homo sapiens)
Construct: purchased Promega (in-house HiBiT-GPCR construct library, NanoBRET)
Sequence (P30872 whole entry): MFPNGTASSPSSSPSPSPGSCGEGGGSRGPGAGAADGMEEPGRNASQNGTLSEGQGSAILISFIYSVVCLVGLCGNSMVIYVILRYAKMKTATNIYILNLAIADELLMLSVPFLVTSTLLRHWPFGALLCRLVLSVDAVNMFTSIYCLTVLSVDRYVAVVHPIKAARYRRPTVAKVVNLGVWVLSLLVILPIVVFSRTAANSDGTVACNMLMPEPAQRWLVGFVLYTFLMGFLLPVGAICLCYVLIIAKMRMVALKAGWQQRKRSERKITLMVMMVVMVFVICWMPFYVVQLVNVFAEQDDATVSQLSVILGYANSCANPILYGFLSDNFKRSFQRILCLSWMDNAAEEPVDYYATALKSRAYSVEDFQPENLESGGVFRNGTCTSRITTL
MEASUREMENT DESCRIPTION: NanoBRET screen HiBiT-SSTR1 in HEK293
Format: binding
MEASUREMENT SETUP: SSTR1; tracer 1μM
Experimental: Each tracer candidate was screened across the entire library of HiBiT-GPCR constructs using NanoBRET as the detection modality. As depicted in Figure 4A, the specificity of interactions was evaluated through decrease in BRET due to competitive displacement of a bound tracer by excess parental compound. Each tracer was analyzed for binding to each HiBiT-GPCR fusion in the absence and in the presence of competing parental compound. […]
Assign 1 to entries whose NanoBRET Fold Response meets or exceeds 1; assign -1 to the rest.

>>> class("CC(C)N(CC[C@H](c1ccccc1)c1cc(CCNC(=O)c2ccc(CNC(=O)CCc3ccc4n3[B-](F)(F)[N+]3=C(c5ccc[nH]5)C=CC3=C4)cc2)ccc1O)C(C)C")
1
>>> class("COc1ccccc1N1CCN(CCCCN2C(=O)c3ccc(CNC(=O)CCOCCNC(=O)c4ccc(CNC(=O)CCc5ccc6n5[B-](F)(F)[N+]5=C(c7ccc[nH]7)C=CC5=C6)cc4)cc3C2=O)CC1")
1
>>> class("CC(C)N(CC[C@H](c1ccccc1)c1cc(CCNC(=O)CCOCCOCCOCCOCCNC(=O)CCc2ccc3n2[B-](F)(F)[N+]2=C(c4ccc[nH]4)C=CC2=C3)ccc1O)C(C)C")
1
>>> class("O=C(CCOCCOCCOCCOCCNC(=O)CCc1ccc2n1[B-](F)(F)[N+]1=C(c3ccc[nH]3)C=CC1=C2)NCCCN1CCN(C2=Nc3ccccc3Oc3ccc(Cl)cc32)CC1")
1
>>> class("Cc1nc2n(c(=O)c1CCN1CCC(c3noc4cc(F)ccc34)CC1)CCCC2OC(=O)NCCOCCOCCOCCOCCNC(=O)CCc1ccc2n1[B-](F)(F)[N+]1=C(c3ccc[nH]3)C=CC1=C2 (centres unmarked)")
-1
>>> class("CCCn1c(=O)c2[nH]c(-c3ccc(OCC(=O)NCCNC(=O)CCOCCNC(=O)c4ccc(CNC(=O)CCc5ccc6n5[B-](F)(F)[N+]5=C(c7ccc[nH]7)C=CC5=C6)cc4)cc3)nc2n(CCC)c1=O")
1
>>> class("O=C(CCc1ccc2n1[B-](F)(F)[N+]1=C(c3ccc[nH]3)C=CC1=C2)NCCOCCOCCNC(=O)OCCOCCN1CCN(C2=Nc3ccccc3Sc3ccccc32)CC1")
-1
>>> class("COc1ccccc1N1CCN(CCCCN2C(=O)c3ccc(CNC(=O)CCOCCOCCOCCOCCNC(=O)CCc4ccc5n4[B-](F)(F)[N+]4=C(c6ccc[nH]6)C=CC4=C5)cc3C2=O)CC1")
1
>>> class("O=C(CCc1ccc2n1[B-](F)(F)[N+]1=C(c3ccc[nH]3)C=CC1=C2)NCc1ccc(C(=O)NCCOCCC(=O)N[C@@H]2CC[C@@]3(O)[C@H]4Cc5ccc(O)c6c5[C@@]3(CCN4CC3CC3)[C@H]2O6)cc1 [Naltrexone-3-NB590]")
-1
>>> class("Cc1cc2c(s1)Nc1ccccc1N=C2N1CCN(CCCNC(=O)CCOCCOCCOCCOCCNC(=O)CCc2ccc3n2[B-](F)(F)[N+]2=C(c4ccc[nH]4)C=CC2=C3)CC1")
1
